- target-under-test: Kras and SOS1 (biotin-tagged human Kras loaded with GDP, His-tagged human SOS1) (Homo sapiens, UniProt P01116, G12D)
- Construct: made in house; host or cells: E. coli (stated for Kras only)
- Sequence (P01116 1-188 isoform P01116-2 G12D): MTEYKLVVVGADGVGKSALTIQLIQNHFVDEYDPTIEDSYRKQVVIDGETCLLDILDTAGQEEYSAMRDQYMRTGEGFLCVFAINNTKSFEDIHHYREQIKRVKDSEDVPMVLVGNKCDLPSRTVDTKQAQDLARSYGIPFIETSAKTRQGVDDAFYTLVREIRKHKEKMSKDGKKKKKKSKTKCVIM
- procedure-details: Protein-protein interaction inhibition between Kras and SOS1 (KrasGl2D-SOS PPI) using AlphaScreen
- Type: binding
- particulars: AlphaScreen; biotin-tagged human Kras loaded with GDP, His-tagged human SOS1; read-out: KRAS G12D-SOS PPI IC50
pIC50: −log10 of the molar value. Starred links: 1 amine or outer side, 2 acyl side, 3 side chain; linkers in the order of their positions; H or OH if unused. Positions of bridges follow the written chain, without caps; N, C: chain ends. Non-standard residues stand in square brackets, D forms with d. Residues, ends and D or L forms follow the SMILES beside them. *: point of attachment. hPhe(3-Cl-4-CF3) = N[C@@H](CCc1ccc(C(F)(F)F)c(Cl)c1)C(=O)O; NMePhe(4-CF3) = CN[C@@H](Cc1ccc(C(F)(F)F)cc1)C(=O)O; 3Oxa8azabicyclo(3.2.1)octane = C1CC2COCC1N2*; NMePhe(4-Me) = CN[C@@H](Cc1ccc(C)cc1)C(=O)O; NMedβ3hAla = C[C@H](CC(=O)[*:2])N(C)[*:1]; NMeCha = CN[C@@H](CC1CCCCC1)C(=O)O; Gly(N-(CH2)2OEt) = CCOCCNCC(=O)O; Hyp = O=C(O)[C@@H]1C[C@@H](O)CN1; NMeChg = CN[C@H](C(=O)O)C1CCCCC1; NMeI = CC[C@H](C)[C@H](NC)C(=O)O; dNMeF = CN[C@H](Cc1ccccc1)C(=O)O; NMeD = CN[C@@H](CC(=O)O)C(=O)O; NMeL = CN[C@@H](CC(C)C)C(=O)O; NMehSer = CN[C@@H](CCO)C(=O)O; NMeV = CN[C@H](C(=O)O)C(C)C; d(β3hA) = C[C@@H](N)CC(=O)O; NMeAbu = CC[C@H](NC)C(=O)O; NMeS = CN[C@@H](CO)C(=O)O; Morpholide = C1CN(*)CCO1; NMeA = CN[C@@H](C)C(=O)O; NMeAib = CNC(C)(C)C(=O)O; Piperidide = C1CCN(*)CC1; Ac5c = NC1(C(=O)O)CCCC1; Aze = O=C(O)[C@@H]1CCN1; Ac4c = NC1(C(=O)O)CCC1; Sar = CNCC(=O)O; Propyl = CCC*
Parameter pIC50: see the listing below.
recorded-endpoint: pIC50

1) CC[C@H](C)[C@@H]1NC(=O)[C@H](CC(C)C)N(C)C(=O)C[C@@H](C(=O)N2CCOCC2)N(C)C(=O)[C@H](C2CCCCC2)N(C)C(=O)C2(CCCC2)NC(=O)[C@@H]2CCCN2C(=O)[C@H](CCc2ccc(C(F)(F)F)c(Cl)c2)NC(=O)CN(C)C(=O)[C@H](CC2CCCCC2)N(C)C(=O)CN(C)C(=O)CN(C)C1=O [Compound 1333] ([NMeL]I[Sar][Sar][NMeCha][Sar][hPhe(3-Cl-4-CF3)]P[Ac5c][NMeChg][NMeD]-Morpholide; lactam N-11); 9.32
2) CC[C@H](C)[C@@H]1NC(=O)[C@H](C)N(C)C(=O)C[C@@H](C(=O)N2CCCCC2)N(C)C(=O)[C@H](C(C)C)N(C)C(=O)C2(CCCC2)NC(=O)[C@@H]2CCCN2C(=O)[C@H](CCc2ccc(C(F)(F)F)c(Cl)c2)NC(=O)CN(C)C(=O)[C@H](CC2CCCCC2)N(C)C(=O)CN(C)C(=O)CN(C)C1=O [Compound 360] ([NMeA]I[Sar][Sar][NMeCha][Sar][hPhe(3-Cl-4-CF3)]P[Ac5c][NMeV][NMeD]-Piperidide; lactam N-11); 8.55
3) CC[C@H](C)[C@@H]1NC(=O)[C@H](CC(C)C)N(C)C(=O)C[C@@H](C)N(C)C(=O)[C@H](C2CCCCC2)N(C)C(=O)C2(CCCC2)NC(=O)[C@@H]2CCCN2C(=O)[C@H](CCc2ccc(C(F)(F)F)c(Cl)c2)NC(=O)CN(C)C(=O)[C@H](Cc2ccc(C)cc2)N(C)C(=O)CN(C)C(=O)CN(C)C1=O [Compound 1682] (cyclo([Ac5c][NMeChg][NMedβ3hAla][NMeL]I[Sar][Sar][NMePhe(4-Me)][Sar][hPhe(3-Cl-4-CF3)]P)); 8.62
4) CCCOC[C@H]1C(=O)N(C)CC(=O)N[C@@H](CCc2ccc(C(F)(F)F)c(Cl)c2)C(=O)N2CCC[C@H]2C(=O)NC2(CCCC2)C(=O)N(C)[C@@H](C2CCCCC2)C(=O)N(C)[C@H](C(=O)N2C3CCC2COC3)CC(=O)N(C)[C@@H](CC)C(=O)N[C@@H]([C@@H](C)CC)C(=O)N(C)CC(=O)N(C)CC(=O)N1C [Compound 1956] ([NMeAbu]I[Sar][Sar][NMeS](Propyl)[Sar][hPhe(3-Cl-4-CF3)]P[Ac5c][NMeChg][NMeD]-{3Oxa8azabicyclo(3.2.1)octane}; lactam N-11); 9.12
5) CCO[C@@H]1C[C@H]2C(=O)NC3(CCC3)C(=O)N(C)[C@@H](C3CCCCC3)C(=O)N(C)[C@H](C)CC(=O)N(C)[C@@H](CC(C)C)C(=O)N[C@@H]([C@@H](C)CC)C(=O)N(C)[C@@H](C)C(=O)N3CC[C@H]3C(=O)N(C)[C@@H](Cc3ccc(C(F)(F)F)cc3)C(=O)N(C)CC(=O)N[C@@H](CCc3ccc(C(F)(F)F)c(Cl)c3)C(=O)N2C1 [Compound 698] (cyclo([Ac4c][NMeChg][NMedβ3hAla][NMeL]I[NMeA][Aze][NMePhe(4-CF3)][Sar][hPhe(3-Cl-4-CF3)][Hyp](Et))); 7.64
6) CCOCCN1CC(=O)N(C)[C@@H](CC2CCCCC2)C(=O)N(C)CC(=O)N[C@@H](CCc2ccc(C(F)(F)F)c(Cl)c2)C(=O)N2CCC[C@H]2C(=O)NC2(CCCC2)C(=O)N(C)[C@@H](C(C)C)C(=O)N[C@H](C)CC(=O)N(C)[C@@H](CC(C)C)C(=O)N[C@@H]([C@@H](C)CC)C(=O)N(C)CC1=O [Compound 864] (cyclo([Ac5c][NMeV][d(β3hA)][NMeL]I[Sar][Gly(N-(CH2)2OEt)][NMeCha][Sar][hPhe(3-Cl-4-CF3)]P)); 7.14
7) CC[C@H](C)[C@@H]1NC(=O)[C@H](C)N(C)C(=O)C[C@@H](C)N(C)C(=O)[C@H](CC)N(C)C(=O)C(C)(C)N(C)C(=O)[C@@H]2CCCN2C(=O)[C@H](CCc2ccc(C(F)(F)F)c(Cl)c2)NC(=O)CN(C)C(=O)[C@H](CC2CCCCC2)N(C)C(=O)[C@@H]2CCN2C(=O)[C@H](C)N(C)C1=O [Compound 2154] (cyclo([Aze][NMeCha][Sar][hPhe(3-Cl-4-CF3)]P[NMeAib][NMeAbu][NMedβ3hAla][NMeA]I[NMeA])); 7.48
8) CC[C@H](C)[C@@H]1NC(=O)[C@H](CCOC)N(C)C(=O)C[C@@H](C(=O)N2CCCCC2)N(C)C(=O)[C@H](C2CCCCC2)N(C)C(=O)C2(CCCC2)NC(=O)[C@@H]2CCCN2C(=O)[C@H](CCc2ccc(C(F)(F)F)c(Cl)c2)NC(=O)CN(C)C(=O)[C@H](CC2CCCCC2)N(C)C(=O)CN(C)C(=O)CN(C)C1=O [Compound 650] ([NMehSer](Me)I[Sar][Sar][NMeCha][Sar][hPhe(3-Cl-4-CF3)]P[Ac5c][NMeChg][NMeD]-Piperidide; lactam N-11); 9.22
9) CC[C@H](C)[C@@H]1NC(=O)[C@H](C)N(C)C(=O)C[C@@H](C(=O)N(C)C)N(C)C(=O)[C@H]([C@@H](C)CC)N(C)C(=O)C2(CCCC2)NC(=O)[C@@H](Cc2ccccc2)N(C)C(=O)[C@H](CCc2ccc(C(F)(F)F)c(Cl)c2)NC(=O)CN(C)C(=O)[C@H](Cc2ccc(C)cc2)N(C)C(=O)[C@@H]2CCN2C(=O)[C@H](C)N(C)C1=O [Compound 1889] ([NMeA]I[NMeA][Aze][NMePhe(4-Me)][Sar][hPhe(3-Cl-4-CF3)][dNMeF][Ac5c][NMeI][NMeD]-NMe2; lactam N-11); 7.01

Cited source for all entries: patent US12371454B2
